protocol text: Viability qHTS for spleen associated tyrosine kinase inhibitor (SYKi) naive MV4-11 cells (AID 1963823); also: nearly all actives have a fitted effect of over 40% in size
conditions used: MV4-11 AML viability, CellTiter-Glo luminescence, 72 h; series mostly up to 45 µM
Experimental: Department of Medicine, Hematology/Oncology University Hospital Frankfurt, Germany. Trials have shown promising clinical activity of the selective SYK inhibitor entospletinib in patients with high expressing HOXA9/MEIS1 acute leukemias. […] 7; Detection; Luminescence; ViewLux plate reader (PerkinElmer). […] 1. Quantitative high-throughput screening (qHTS) of small molecule compounds was conducted on naive SYKi MV4-11 cell line. […] 7. Luminescence was measured on a ViewLux plate reader (PerkinElmer).
Records with an inconclusive call do not appear. Activity calls are given as the source filed them. Calls follow the shape of the dose curve; as a rule, active = well fitted cell-killing curve with a large enough effect; inconclusive = small, poorly fitted or top-dose-only effect, or effect the other way; inactive = no such curve, though single readings can be large or run the other way.
Choose the fitting class; nothing outside active, inactive is accepted.

Cc1cc(Nc2ncc(Cl)c(Nc3ccccc3S(=O)(=O)C(C)C)n2)c(OC(C)C)cc1C1CCNCC1
active

Query: What outcome does the record of this test show for CC(C)(O)/C=C/C(=O)[C@](C)(O)[C@H]1[C@H](O)C[C@@]2(C)[C@@H]3CC=C4[C@@H](C=C(O[C@@H]5O[C@H](CO)[C@@H](O)[C@H](O)[C@H]5O)C(=O)C4(C)C)[C@]3(C)C(=O)C[C@]12C ?
Result: inactive

Query: What outcome does the record of this test show for COc1ccc(OC(=O)N(CC(=O)O)Cc2ccc(OCCc3nc(-c4ccccc4)oc3C)cc2)cc1 ?
Result: inactive

Query: What outcome does the record of this test show for COc1c2cc(c(O)c1OC)-c1cc(ccc1O)CCC(O)CCCC2 (centres undefined) ?
Result: active
